Measured IC50 of individual entries
Measured on: GlyT1 (Homo sapiens)
Construct: expressed in transfected cells
Run description: Glycine Transporter 1 (GlyT1) uptake assay, scintillation proximity assay of [14C]-glycine uptake
Assay type: cell-based
Condition label: SPA, four parameter logistic fit, read-out: GlyT1 (pIC50) (converted)

Example entries begin here.
Please report IC50 for the following molecule: CC(Oc1ccc(C#N)c(Cl)c1C(=O)N1CCc2nn(-c3ccc(Cl)cn3)cc2C1)C(F)(F)F (stereo not shown)
100 to 1000 nM

Please report IC50 for the following molecule: C[C@H](Oc1ccc(C#N)c(Cl)c1C(=O)N1Cc2cn(-c3ccc(C(F)(F)F)cn3)nc2C1)C(F)(F)F
100 to 1000 nM

Please report IC50 for the following molecule: CCS(=O)(=O)c1ccc(O[C@@H](C)C(F)(F)F)c(C(=O)N2Cc3cn(-c4cccc(Cl)c4F)nc3C2)c1
< 100 nM

Lab note: next molecule to report on.
Please report IC50 for the following molecule: CC(Oc1ccc(C(N)=O)c(Cl)c1C(=O)N1Cc2cn(-c3ccc(F)cc3)nc2C1)C(F)(F)F (stereo not shown)
< 100 nM

###

Measured IC50 of individual entries
Measured on: GlyT1 (Homo sapiens, UniProt P48067)
Construct: expressed in transfected cells
Sequence (P48067 1-706): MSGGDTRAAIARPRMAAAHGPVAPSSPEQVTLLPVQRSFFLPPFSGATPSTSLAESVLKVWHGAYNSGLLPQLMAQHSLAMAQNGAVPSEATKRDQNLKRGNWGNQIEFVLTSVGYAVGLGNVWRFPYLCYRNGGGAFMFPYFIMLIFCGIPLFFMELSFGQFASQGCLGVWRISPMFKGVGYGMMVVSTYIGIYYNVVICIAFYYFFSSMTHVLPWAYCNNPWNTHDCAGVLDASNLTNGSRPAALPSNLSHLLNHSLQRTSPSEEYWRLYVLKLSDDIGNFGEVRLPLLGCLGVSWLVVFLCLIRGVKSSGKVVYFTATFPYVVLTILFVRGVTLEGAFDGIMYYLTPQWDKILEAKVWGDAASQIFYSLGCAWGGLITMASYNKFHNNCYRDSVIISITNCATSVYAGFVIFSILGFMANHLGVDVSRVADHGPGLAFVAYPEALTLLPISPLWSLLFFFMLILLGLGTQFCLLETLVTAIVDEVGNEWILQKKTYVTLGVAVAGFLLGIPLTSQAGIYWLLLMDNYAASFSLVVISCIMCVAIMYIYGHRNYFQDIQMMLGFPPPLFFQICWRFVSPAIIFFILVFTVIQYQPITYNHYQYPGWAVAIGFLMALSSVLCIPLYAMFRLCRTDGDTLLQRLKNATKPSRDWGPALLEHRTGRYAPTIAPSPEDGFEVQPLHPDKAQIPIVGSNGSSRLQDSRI
Run description: Glycine Transporter 1 (GlyT1) uptake assay, scintillation proximity assay of [14C]-glycine uptake
Assay type: cell-based
Condition label: SPA, four parameter logistic fit, read-out: GlyT1 (pIC50) (converted)

Example entries begin here.
Please report IC50 for the following compound: COc1c(C#N)ccc(N2CCC(F)(F)CC2)c1C(=O)N1Cc2cn(-c3ccc(F)cc3)nc2C1
< 100 nM

Please report IC50 for the following compound: Cc1cc(-n2cc3c(n2)CN(C(=O)c2cc(S(C)(=O)=O)ccc2N2CCC(F)(F)CC2)C3)ccn1
< 100 nM

Please report IC50 for the following compound: N#Cc1ccc(C2(F)CCCC2)c(C(=O)N2CCc3nn(-c4ccc(F)cc4)cc3C2)c1F
100 to 1000 nM

Lab note: next compound to report on.
Please report IC50 for the following compound: COc1c(C#N)ccc(OC(C)C2CC2)c1C(=O)N1Cc2cn(-c3ccc(F)cc3)nc2C1 (stereo not shown)
< 100 nM

###

Measured IC50 of individual entries
Measured on: GlyT1 (Homo sapiens)
Construct: expressed in transfected cells
Run description: Glycine Transporter 1 (GlyT1) uptake assay, scintillation proximity assay of [14C]-glycine uptake
Assay type: cell-based
Condition label: SPA, four parameter logistic fit, read-out: GlyT1 (pIC50) (converted)

Example entries begin here.
Please report IC50 for the following molecule: CS(=O)(=O)c1ccc(N2CCCCC2)c(C(=O)N2Cc3cn(-c4ccc(F)cc4)nc3C2)c1
< 0.1 µM

Please report IC50 for the following molecule: CNC(=O)c1ccc(OC(C)C(F)(F)F)c(C(=O)N2CCc3nn(-c4ccc(F)cc4)cc3C2)c1Cl (stereo not shown)
< 0.1 µM

Please report IC50 for the following molecule: CC(C)S(=O)(=O)c1ccc(O[C@@H](C)C(F)(F)F)c(C(=O)N2Cc3cn(-c4ccc(F)cc4)nc3C2)c1
0.1 to 1 µM

Please report IC50 for the following molecule: Cc1cccc(-n2cc3c(n2)CN(C(=O)c2c(OCC(F)(F)F)ccc(C#N)c2Cl)C3)n1
0.1 to 1 µM

Please report IC50 for the following molecule: CCS(=O)(=O)c1ccc(OC(C)C)c(C(=O)N2Cc3cn(-c4ccccc4)nc3C2)c1
< 0.1 µM

Please report IC50 for the following molecule: Cc1cccc(-n2cc3c(n2)CN(C(=O)c2cc(S(C)(=O)=O)ccc2OCC(F)(F)F)C3)c1
< 0.1 µM

Lab note: next molecule to report on.
Please report IC50 for the following molecule: CS(=O)(=O)c1ccc(-c2cccc(F)c2)c(C(=O)N2Cc3cn(CC4CCC4)nc3C2)c1
< 0.1 µM

###

Measured on: GlyT1 (Homo sapiens, UniProt P48067)
Construct: expressed in transfected cells
Run description: Glycine Transporter 1 (GlyT1) uptake assay, scintillation proximity assay of [14C]-glycine uptake
Type: cell-based
Condition label: SPA, four parameter logistic fit, read-out: GlyT1 (pIC50) (converted)
Result type: IC50

Example entries begin here.
Please report IC50 for the following compound: CS(=O)(=O)c1ccc(OCC(F)(F)F)c(C(=O)N2Cc3cn(-c4ccccc4)nc3C2)c1 [Example 102]
< 0.1 µM

Please report IC50 for the following compound: CS(=O)(=O)c1ccc(-c2cccc(F)c2)c(C(=O)N2Cc3cn(CC4CC4(F)F)nc3C2)c1 (stereo not drawn) [Example 453]
< 0.1 µM

Please report IC50 for the following compound: CCS(=O)(=O)c1ccc(OC(C)C)c(C(=O)N2Cc3cn(-c4ccc(F)cc4F)nc3C2)c1 [Example 81]
0.1 to 1 µM

Continuing:
Please report IC50 for the following compound: Cc1cc(-n2cc3c(n2)CN(C(=O)c2cc(S(C)(=O)=O)ccc2-c2cccc(F)c2)C3)ccn1 [Example 109]
< 0.1 µM

Please report IC50 for the following compound: Cc1ncc(F)cc1-n1cc2c(n1)CN(C(=O)c1cc(C#N)ccc1O[C@@H](C)C(F)(F)F)C2 [Example 354]
1 to 10 µM

Please report IC50 for the following compound: CC(Oc1ccc(C#N)c(Cl)c1C(=O)N1CCc2nn(-c3ccc(F)cc3)c(O)c2C1)C(F)(F)F (stereo not drawn) [Example 197]
> 10 µM

Please report IC50 for the following compound: C[C@@H](Oc1ccc(C#N)c(Cl)c1C(=O)N1Cc2cn(-c3cncc(F)c3)nc2C1)C(F)(F)F [Example 30]
< 0.1 µM

Please report IC50 for the following compound: CCc1cc(-n2cc3c(n2)CN(C(=O)c2cc(S(C)(=O)=O)ccc2-c2cccc(F)c2)C3)ccn1 [Example 143]
< 0.1 µM

Please report IC50 for the following compound: Cc1ccc(F)c(-n2cc3c(n2)CN(C(=O)c2cc(S(C)(=O)=O)ccc2OCC2CC2)C3)c1 [Example 136]
< 0.1 µM

Please report IC50 for the following compound: CC(C)Oc1ccc(S(C)(=O)=O)cc1C(=O)N1Cc2cn(-c3cc(Cl)ccc3F)nc2C1 [Example 62]
< 0.1 µM

Please report IC50 for the following compound: Cc1cccc(-n2cc3c(n2)CN(C(=O)c2cc(S(C)(=O)=O)ccc2OCC2CC2)C3)c1 [Example 140]
< 0.1 µM

Please report IC50 for the following compound: COc1c(C#N)ccc(O[C@H](C)C(F)(F)F)c1C(=O)N1Cc2cn(-c3cncc(F)c3)nc2C1 [Example 289]
< 0.1 µM

Please report IC50 for the following compound: CC(C)Oc1ccc(C#N)cc1C(=O)N1Cc2cn(-c3ccc(C#N)nc3)nc2C1 [Example 466]
0.1 to 1 µM

Please report IC50 for the following compound: N#Cc1ccc(N2CCC(F)(F)CC2)c(C(=O)N2CCc3nn(-c4ccccc4)cc3C2)c1Cl [Example 502]
0.1 to 1 µM

Please report IC50 for the following compound: Cc1cccc(-n2cc3c(n2)CN(C(=O)c2cc(S(C)(=O)=O)ccc2OCC2(C)COC2)C3)c1F [Example 441]
0.1 to 1 µM

###

Measured IC50 of individual entries
Measured on: GlyT1 (Homo sapiens, UniProt P48067)
Construct: expressed in transfected cells
Run description: Glycine Transporter 1 (GlyT1) uptake assay, scintillation proximity assay of [14C]-glycine uptake
Assay type: cell-based
Condition label: SPA, four parameter logistic fit, read-out: GlyT1 (pIC50) (converted)

Example entries begin here.
Please report IC50 for the following compound: COc1c(C#N)ccc(OCC(F)(F)F)c1C(=O)N1Cc2cn(-c3ccc(F)cc3)nc2C1 [Example 29]
< 100 nM

Please report IC50 for the following compound: Cc1cc(-n2cc3c(n2)CN(C(=O)c2cc(S(C)(=O)=O)ccc2O[C@@H](C)C(F)(F)F)C3)ccc1F [Example 36]
< 100 nM

Please report IC50 for the following compound: CCS(=O)(=O)c1ccc(N2CCC(F)(F)CC2)c(C(=O)N2Cc3cn(-c4ccc(F)cn4)nc3C2)c1 [Example 135]
< 100 nM

Lab note: next compound to report on.
Please report IC50 for the following compound: CC(Oc1ccc(S(C)(=O)=O)cc1C(=O)N1CCc2c(c(C(F)(F)F)nn2-c2ccccc2)C1)C(F)(F)F (stereo not shown) [Example 168]
1000 to 10000 nM
